What pEC50 was measured for each of the following?
Biological target: human activated kallikrein enzyme (Homo sapiens)
Sequence (P03952 391-638 limits assumed): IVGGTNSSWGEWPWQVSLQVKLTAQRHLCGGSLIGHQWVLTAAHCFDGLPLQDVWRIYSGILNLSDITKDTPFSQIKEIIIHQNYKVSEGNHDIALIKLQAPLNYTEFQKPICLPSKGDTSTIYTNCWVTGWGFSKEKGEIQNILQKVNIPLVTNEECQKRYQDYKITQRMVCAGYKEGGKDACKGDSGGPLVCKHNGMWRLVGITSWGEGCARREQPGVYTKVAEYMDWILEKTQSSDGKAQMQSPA
Sequence (P03952 20-390 partner limits assumed): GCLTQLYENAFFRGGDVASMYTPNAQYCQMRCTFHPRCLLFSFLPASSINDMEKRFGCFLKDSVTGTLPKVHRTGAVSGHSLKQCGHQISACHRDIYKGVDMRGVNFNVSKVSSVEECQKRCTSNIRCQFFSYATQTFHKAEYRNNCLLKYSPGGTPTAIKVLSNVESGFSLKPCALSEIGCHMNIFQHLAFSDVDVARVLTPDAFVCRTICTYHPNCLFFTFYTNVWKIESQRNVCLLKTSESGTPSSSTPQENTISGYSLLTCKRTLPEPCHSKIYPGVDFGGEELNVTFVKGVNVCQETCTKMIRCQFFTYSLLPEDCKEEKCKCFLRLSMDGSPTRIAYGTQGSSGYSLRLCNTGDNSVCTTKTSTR
Test: Plasma kallikrein inhibition, fluorogenic PFR-AMC substrate, 500 pM activated kallikrein format
Type: biochemical
Details: 500 pM activated kallikrein, 300 uM PFR-AMC, 30 min preincubation, 10 min reaction; read-out: Primary Dose Response Assay: Average EC50
pEC50: −log10 of the molar value.

# pEC50 lookup, item CN1C(=O)CN(c2cc(C3CC3)cn3cc(CNc4cc(NC(=O)[C@H]5C[C@@H]5c5cc(Cl)ccn5)ncn4)nc23)C1=O (single isomer, unassigned) [Example I-264]
> 9.00

# pEC50 lookup, item O=C(Nc1cc(NCc2cn3cc(C4CC4)cc(N4CC(=O)N(CC(F)(F)F)C4=O)c3n2)ccn1)[C@H]1C[C@@H]1c1cccc(Cl)c1 [Example 512]
8.00 to 9.00

# pEC50 lookup, item Cc1ccnc([C@H]2C[C@@H]2C(=O)Nc2cc(OC(C)c3cn4cc(C5CC5)cc(N5CC(=O)N(C)C5=O)c4n3)ncn2)n1 (stereo partly shown) [Example 549]
> 9.00

# pEC50 lookup, item Cc1ccnc([C@H]2C[C@@H]2C(=O)Nc2nncc(OC(C)c3cn4cc(C5CC5)cc(N5CC(=O)N(C)C5=O)c4n3)n2)n1 (stereo partly shown) [Example 672]
> 9.00

# pEC50 lookup, item Cc1ccnc([C@H]2C[C@@H]2C(=O)Nc2cc(NCc3cn4cc(C5CC5)cc(N5CC(=O)N(C)C5=O)c4n3)c(Cl)nn2)n1 [Example I-247]
8.00 to 9.00

# pEC50 lookup, item O=C(Nc1cc(NCc2cn3cc(C4CC4)cc(C(=O)N4CCNCC4)c3n2)ncn1)[C@H]1C[C@@H]1c1cccc(Cl)c1 [Example 304]
> 9.00

# pEC50 lookup, item CCN(Cc1cn2cc(C3CC3)cc(N3CC(=O)N(C)C3=O)c2n1)c1cc(NC(=O)[C@H]2C[C@@H]2c2nccc(C)n2)nc(C)n1 [Example 360]
8.00 to 9.00
